experiment: Partition coefficient, log P of the compound; type: physicochemical; conditions: octanol/water; read-out: logP
observationType: logP

Cc1ccc(-n2nc(C(C)(C)C)cc2NC(=O)Nc2ccc(-c3ccc(N)nc3)cc2)cc1 :: 5.13
Cc1ccc(-n2nc(C(C)(C)C)cc2NC(=O)Nc2ccc(-n3cncc3C)cc2)cc1 :: 4.6
Cc1ccc(-n2nc(C(C)(C)C)cc2NC(=O)Nc2ccc(-n3cnnc3)cc2)cc1 :: 4.07
Cc1ccc(-n2nc(C(C)(C)C)cc2NC(=O)Nc2ccc(-n3nnnc3C)cc2)cc1 :: 3.86
Cc1ccc(-n2nc(C(C)(C)C)cc2NC(=O)Nc2ccc(-c3cccnc3)cc2)cc1 :: 4.84

====

assay: Partition coefficient, log P of the compound; format: physicochemical; settings: octanol/water; read-out: logP
observationType: logP

Cc1ccc(-n2nc(C(C)(C)C)cc2NC(=O)Nc2ccc(-n3cnc4c(N)ncnc43)cc2)cc1 :: 3.98
Cc1ccc(-n2nc(C(C)(C)C)cc2NC(=O)Nc2ccc(-c3cnco3)cc2)cc1 :: 4.96
Cc1ccc(-n2nc(C(C)(C)C)cc2NC(=O)Nc2ccc(-n3ccnc3)cc2)cc1 :: 4.35
Cc1ccc(-n2nc(C(C)(C)C)cc2NC(=O)Nc2ccc(-c3nncn3C)cc2)cc1 :: 3.34
Cc1ccc(-n2nc(C(C)(C)C)cc2NC(=O)Nc2ccc(-c3csnn3)cc2)cc1 :: 5.15
Cc1ccc(-n2nc(C(C)(C)C)cc2NC(=O)Nc2ccc(-n3cnc(C)c3)cc2)cc1 :: 4.83
Cc1ccc(-n2nc(C(C)(C)C)cc2NC(=O)Nc2ccc(-n3cnnn3)cc2)cc1 :: 4.14
COc1ccc(-c2ccc(NC(=O)Nc3cc(C(C)(C)C)nn3-c3ccc(C)cc3)cc2)cn1 :: 4.25

====

experiment: Lipophilicity, log D of the compound at pH 7.4; assay type: physicochemical; settings: buffer, read-out: logD
observationType: logD

Cc1ccc(-n2nc(C(C)(C)C)cc2NC(=O)Nc2ccc(-n3cnnc3)cc2)cc1 :: 3.94
Cc1ccc(-n2nc(C(C)(C)C)cc2NC(=O)Nc2ccc(-c3csnn3)cc2)cc1 :: 4.58
COc1ccc(-c2ccc(NC(=O)Nc3cc(C(C)(C)C)nn3-c3ccc(C)cc3)cc2)cn1 :: 4.02
Cc1ccc(-n2nc(C(C)(C)C)cc2NC(=O)Nc2ccc(-n3cnnn3)cc2)cc1 :: 3.79
Cc1ccc(-n2nc(C(C)(C)C)cc2NC(=O)Nc2ccc(-n3cnc(C)c3)cc2)cc1 :: 4.08
Cc1ccc(-n2nc(C(C)(C)C)cc2NC(=O)Nc2ccc(-n3ccnc3)cc2)cc1 :: 3.85
Cc1ccc(-n2nc(C(C)(C)C)cc2NC(=O)Nc2ccc(-c3ccc(N)nc3)cc2)cc1 :: 3.88
Cc1ccc(-n2nc(C(C)(C)C)cc2NC(=O)Nc2ccc(-n3cnc4c(N)ncnc43)cc2)cc1 :: 4.05

====

assay: Lipophilicity, log D of the compound at pH 7.4; format: physicochemical; conditions: buffer, read-out: logD
observationType: logD

Cc1ccc(-n2nc(C(C)(C)C)cc2NC(=O)Nc2ccc(-c3ccc(OCc4ccccc4)nc3)cc2)cc1 :: 3.94
Cc1ccc(-n2nc(C(C)(C)C)cc2NC(=O)Nc2ccc(-n3cnc(Cl)c3Cl)cc2)cc1 :: 3.96
COc1cc(OC)nc(-c2ccc(NC(=O)Nc3cc(C(C)(C)C)nn3-c3ccc(C)cc3)cc2)n1 :: 3.94

====

experiment: Partition coefficient, log P of the compound; assay type: physicochemical; conditions: octanol/water; read-out: logP
Item-by-item account of logP

Use these answered entries as a reference point.
COc1cc(OC)nc(-c2ccc(NC(=O)Nc3cc(C(C)(C)C)nn3-c3ccc(C)cc3)cc2)n1 :: > 5.4
Cc1ccc(-n2nc(C(C)(C)C)cc2NC(=O)Nc2ccc(-c3ccc(OCc4ccccc4)nc3)cc2)cc1 :: > 5.4

# evaluate next
Ask: Provide only the value of recorded logP for Cc1ccc(-n2nc(C(C)(C)C)cc2NC(=O)Nc2ccc(-n3cnc(Cl)c3Cl)cc2)cc1
Result: > 5.4

Provenance of the data: ChEMBL document CHEMBL2424535
